System: breast cancer cell line, SK-Br3
test_protocol: Inhibitory effect on growth of cancer cell line SK-Br3, SRB
Format: cell-based
experimental_setup: Homo sapiens, SK-BR-3, 72 h, overexpressed EGFR2 (HER-2)
pIC50: −log10 of the molar value.
measurement_type: pIC50

>  <molecule>
C=CC(=O)Nc1cc2c(Nc3ccc(Br)cc3F)ncnc2cc1OCCN(C)C(C)=O

>  <numeric_readout>
6.85

$$$$
>  <molecule>
C=CC(=O)Nc1cc2c(Nc3ccc(Br)cc3F)ncnc2cc1OCCNC(=O)C(=O)OCC

>  <numeric_readout>
5.36

$$$$
>  <molecule>
C=CC(=O)Nc1cc2c(Nc3ccc(Br)cc3F)ncnc2cc1OCCNC(=O)NCCC

>  <numeric_readout>
7.17

$$$$
>  <molecule>
C=CC(=O)Nc1cc2c(Nc3ccc(Br)cc3F)ncnc2cc1OCCNC(=O)NC(C)C

>  <numeric_readout>
7.19

$$$$
>  <molecule>
C=CC(=O)Nc1cc2c(Nc3cc(OC)c(Cl)cc3Cl)ncnc2cc1OCCNC(C)=O

>  <numeric_readout>
7.44

$$$$

[1] C=C(C)C(=O)Nc1cc2c(Nc3ccc(Br)cc3F)ncnc2cc1OCCNC(C)=O
[2] C=CC(=O)Nc1cc2c(Nc3ccc(Cl)cc3F)ncnc2cc1OCCNC(=O)CN(C)C
q: Given 1 and given 2 , which shows the smaller recorded pIC50? Reply briefly: the label of your chosen item.
a: 1
(1: 5.20, 2: 6.60)

* * *

Tested on: skin cancer cell line, A431
test_protocol: Inhibitory effect on growth of cancer cell line A431, SRB
Format: cell-based
experimental_setup: Homo sapiens, A-431, 72 h, overexpressed EGFR1 (HER-1)
From the text: A skin cancer cell line, A431 (ATCC: CRL-1555), a breast cancer cell line, SK-Br3 (ATCC: HTB-30), and a colon and rectal cancer cell line, SW-620 (ATCC: CCL-227) were used to test the degrees of cancer cell growth inhibition using a culture medium, DEME (Dulbecco's Modified Eagle's Medium, JBI) including 4.5 g/l of glucose and 1.5 g/l of sodium bicarbonate and supplemented with 10% FBS (fetal bovine serum, JBI). […]
pIC50: −log10 of the molar value.
measurement_type: pIC50

In the examples that follow, each entry is paired with its recorded pIC50.
>  <compound>
C=CC(=O)Nc1cc2c(Nc3ccc(F)c(F)c3F)ncnc2cc1OCCNC(C)=O

>  <assayed_target>
skin cancer cell line, A431

>  <pIC50>
7.82

$$$$
>  <compound>
C=CC(=O)Nc1cc2c(Nc3ccc(Br)cc3F)ncnc2cc1OCCNC(=O)CN(CC)CC

>  <assayed_target>
skin cancer cell line, A431

>  <pIC50>
7.38

$$$$
>  <compound>
C=CC(=O)Nc1cc2c(Nc3ccc(Br)cc3F)ncnc2cc1OCCCNC

>  <assayed_target>
skin cancer cell line, A431

>  <pIC50>
7.96

$$$$

[1] C=CC(=O)Nc1cc2c(Nc3ccc(Br)cc3F)ncnc2cc1OCCCNC(C)=O
[2] C=CC(=O)Nc1cc2c(Nc3ccc(Br)cc3F)ncnc2cc1OCCNC(=S)NCC
q: Lab note: check whether 1 or 2 shows the higher recorded pIC50. Reply briefly: the label of your chosen item.
a: 1

* * *

System: breast cancer cell line, SK-Br3
test_protocol: Inhibitory effect on growth of cancer cell line SK-Br3, SRB
Type: cell-based
experimental_setup: Homo sapiens, SK-BR-3, 72 h, overexpressed EGFR2 (HER-2)
From the text: A skin cancer cell line, A431 (ATCC: CRL-1555), a breast cancer cell line, SK-Br3 (ATCC: HTB-30), and a colon and rectal cancer cell line, SW-620 (ATCC: CCL-227) were used to test the degrees of cancer cell growth inhibition using a culture medium, DEME (Dulbecco's Modified Eagle's Medium, JBI) including 4.5 g/l of glucose and 1.5 g/l of sodium bicarbonate and supplemented with 10% FBS (fetal bovine serum, JBI). […]
measurement_type: IC50 (nM)

In the examples that follow, each entry is paired with its recorded IC50.
>  <compound>
C=CC(=O)Nc1cc2c(Nc3c(F)cc(Br)cc3F)ncnc2cc1OCC1CCN(C(C)=O)CC1 [Example 8]

>  <unit_descriptor>
nM

>  <IC50>
149

$$$$
>  <compound>
C=CC(=O)Nc1cc2c(Nc3ccc(Br)cc3F)ncnc2cc1OCCNC(=O)CCN1CCCCC1 [Example 104]

>  <unit_descriptor>
nM

>  <IC50>
93

$$$$
>  <compound>
C=CC(=O)Nc1cc2c(Nc3ccc(F)c(F)c3F)ncnc2cc1OCC1CCN(C(C)=O)CC1 [Example 7]

>  <unit_descriptor>
nM

>  <IC50>
67

$$$$

[A] C=CC(=O)Nc1cc2c(Nc3ccc(Br)cc3F)ncnc2cc1OC1CCN(C(C)=O)C1 (stereo not drawn) [Example 88]
[B] C=CC(=O)Nc1cc2c(Nc3ccc(Br)cc3F)ncnc2cc1OCCCNC(=O)CN(C)C [Example 12]
[C] C=CC(=O)Nc1cc2c(Nc3ccc(Br)c(Cl)c3F)ncnc2cc1OCCNC(=O)N1CCOCC1 [Example 41]
[D] C=CC(=O)Nc1cc2c(Nc3ccc(Br)cc3F)ncnc2cc1OCCNC(=O)CN(CC)CC [Example 167]
q: Please rank these compounds by IC50 in descending order. Lab note: final answer is the ordered label list.
a: A, B, D, C
(A: 297 nM, B: 157 nM, D: 103 nM, C: 53 nM)

[1] C=CC(=O)N(C)c1cc2c(Nc3ccc(Br)cc3F)ncnc2cc1OCCNC(C)=O [Example 78]
[2] C=CC(=O)Nc1cc2c(Nc3ccc(Br)c(Cl)c3F)ncnc2cc1OCCNC(=O)CCN(CC)CC [Example 144]
q: Given 1 and given 2 , which shows the smaller recorded IC50? Reply briefly: the label of your chosen item.
a: 2

[1] C=CC(=O)Nc1cc2c(Nc3ccc(Br)cc3Cl)ncnc2cc1OCCNC(C)=O [Example 115]
[2] C=CC(=O)Nc1cc2c(Nc3ccc(Br)cc3F)ncnc2cc1OCCNC(=O)c1ccc[nH]1 [Example 99]
q: Given 1 and given 2 , which shows the smaller recorded IC50? Reply briefly: the label of your chosen item.
a: 1

Source listed as patent US8846699B2.
